Each record here notes measured melting point.
attribute_measured: melting point

> print(dat)
                                   molecule         result
1  COCCOc1cc2ncnc(Nc3cccc(-c4cn(-c5ccc(F)cc5)nn4)c3)c2cc1OCCOC    88 to 91 °C
2  COCCOc1cc2ncnc(Nc3cccc(-c4cn(-c5ccccc5F)nn4)c3)c2cc1OCCOC    83 to 86 °C
3  COCCOc1cc2ncnc(Nc3cccc(-c4cn(Cc5ccccc5Br)nn4)c3)c2cc1OCCOC    94 to 97 °C
4  COCCOc1cc2ncnc(Nc3cccc(-c4cn(-c5cccc([N+](=O)[O-])c5)nn4)c3)c2cc1OCCOC   98 to 101 °C
5  COCCOc1cc2ncnc(Nc3cccc(-c4cn(Cc5cccc(OC)c5)nn4)c3)c2cc1OCCOC    85 to 88 °C
6  COCCOc1cc2ncnc(Nc3cccc(-c4cn(Cc5ccccc5I)nn4)c3)c2cc1OCCOC [e2]    93 to 96 °C
7  COCCOc1cc2ncnc(Nc3cccc(-c4cn(-c5ccc(C)cc5)nn4)c3)c2cc1OCCOC    95 to 98 °C
8  COCCOc1cc2ncnc(Nc3cccc(-c4cn(-c5ccc(OC)c(OC)c5)nn4)c3)c2cc1OCCOC  106 to 109 °C
9  COCCOc1cc2ncnc(Nc3cccc(-c4cn(Cc5ccccc5)nn4)c3)c2cc1OCCOC [e1]    89 to 92 °C

---

Tested on: H460 cells
protocol_details: CCK-8 antiproliferation assay, H460
protocol_conditions: Homo sapiens, NCI-H460, 48 h, read-out: IC50 (μM) H460, CCK-8, 48 h, average ± SD of three independent experiments
attribute_measured: IC50

> print(dat)
                                   compound    result
1  COCCOc1cc2ncnc(Nc3cccc(-c4cn(-c5ccc(F)cc5)nn4)c3)c2cc1OCCOC [e7]  > 100 µM
2  COCCOc1cc2ncnc(Nc3cccc(-c4cn(-c5ccc(OC)c(OC)c5)nn4)c3)c2cc1OCCOC [e19]  > 100 µM
3  COCCOc1cc2ncnc(Nc3cccc(-c4cn(Cc5ccccc5)nn4)c3)c2cc1OCCOC [e1]  > 100 µM
4  COCCOc1cc2ncnc(Nc3cccc(-c4cn(Cc5cc(Br)cc(Br)c5)nn4)c3)c2cc1OCCOC [e4]   < 10 µM
5  COCCOc1cc2ncnc(Nc3cccc(-c4cn(Cc5ccccc5Br)nn4)c3)c2cc1OCCOC [e3]  > 100 µM

---

Test system: H460 cells
protocol_details: CCK-8 antiproliferation assay, H460
protocol_conditions: Homo sapiens, NCI-H460, read-out: Inhibitory efficacy, H460 cells; 8uM; given as fraction; Repeat 1-3
Everything with inhibition at 8 µM lower than 40% is rule not met; everything else, including exactly 40%, is rule met.

> print(dat)
                                   compound  measured.on      category
1  COCCOc1cc2ncnc(Nc3cccc(-c4cn(-c5ccccc5C(F)(F)F)nn4)c3)c2cc1OCCOC   H460 cells      rule met
2  COCCOc1cc2ncnc(Nc3cccc(-c4cn(-c5ccccc5F)nn4)c3)c2cc1OCCOC   H460 cells      rule met
3  COCCOc1cc2ncnc(Nc3cccc(-c4cn(Cc5ccccc5Br)nn4)c3)c2cc1OCCOC   H460 cells  rule not met
4  COCCOc1cc2ncnc(Nc3cccc(-c4cn(-c5ccc(Br)cc5)nn4)c3)c2cc1OCCOC   H460 cells  rule not met
5  C#Cc1cccc(Nc2ncnc3cc(OCCOC)c(OCCOC)cc23)c1 [Erlotinib, reference compound]   H460 cells      rule met
6  COCCOc1cc2ncnc(Nc3cccc(-c4cn(-c5ccc(C)cc5O)nn4)c3)c2cc1OCCOC   H460 cells      rule met
7  CCOc1cccc(-n2cc(-c3cccc(Nc4ncnc5cc(OCCOC)c(OCCOC)cc45)c3)nn2)c1   H460 cells  rule not met
